- PROTOCOL: Acute toxicity in mice
- CONDITION DETAILS: mouse, in vivo, po, observation time 14 days

CHEMICAL STRUCTURE | LD50 at 336 h
CCN1CCc2ncc(N)nc2CC1.Cl.Cl | 1250 mg/kg

---

- System: circulation of intact, anesthetized rats
- PROTOCOL: Effect upon blood pressure and heart rate in intact, anesthetized rats after intravenous injection
- Assay type: in vivo
- CONDITION DETAILS: 3 mg/kg i.v.
# if measured Blood pressure, depressor phase (maximum value) < -20 mm Hg: met  # else: not met

CHEMICAL STRUCTURE | CLASS LABEL
CCN1CCc2nc(N)c(Cl)nc2CC1.Cl | not met
CCN1CCc2nc(N)c(Br)nc2CC1.Cl | not met
Cl.Nc1cnc2c(n1)CCN(C1CC1)CC2 | met
CN1CCc2ncc(N)nc2CC1.Cl.Cl | met
CCN1CCc2nc(N)cnc2C1.Cl.Cl | met
CCN1CCc2nc(C)c(N)nc2CC1.Cl.Cl | not met

---

- System: circulation of intact, anesthetized rats
- PROTOCOL: Effect upon blood pressure and heart rate in intact, anesthetized rats after intravenous injection
- Type: in vivo
- CONDITION DETAILS: 3 mg/kg i.v.
Listing of recorded Blood pressure, pressor phase (maximum value) by entry.
READOUT: Blood pressure, pressor phase (maximum value)

CHEMICAL STRUCTURE | RESULT
CN1CCc2ncc(N)nc2CC1.Cl.Cl | +26 mm Hg
Cl.Nc1cnc2c(n1)CCN(C1CC1)CC2 | +51 mm Hg
CCN1CCc2nc(N)c(Br)nc2CC1.Cl | +50 mm Hg
CCN1CCc2nc(N)c(Cl)nc2CC1.Cl | +32 mm Hg
CCN1CCc2nc(N)cnc2C1.Cl.Cl | +6 mm Hg
CCN1CCc2ncc(N)nc2CC1.Cl.Cl | +61 mm Hg
CCN1CCc2nc(C)c(N)nc2CC1.Cl.Cl | +38 mm Hg
C=CCN1CCc2ncc(N)nc2CC1.Cl.Cl | +40 mm Hg
